Give measured EC50 for each item. Keep answers brief.
System: HIV-1 NL4-3
Assay: Anti-HIV assay: HIV-1 NL4-3 replication in MT4 cells (p24 ELISA)
Format: cell-based
Settings: Human immunodeficiency virus 1, NL43; HIV-NL4-3 in MT4 cells; average of at least two experiments; read-out: EC50 (concentration that inhibits HIV-1 replication by 50%)
Text: Anti-HIV assay: A previously known HIV-1 infectivity assay was used in the experiments (See Zhu, et al. Proc. Natl. Acad. Sci. U.S.A. 2001, 98, 15227). A 96-well microtiter plate was used to set up the HIV-1 NL4-3 replication assay. HIV-1 NL4-3 at a multiplicity of infection (MOI) of 0.01 was used to infect MT4 cells. […] A Promega luciferase assay kit was used to quantify luciferase activity in the fused cells using a Biotek luminometer. […]
Give just the numeric value; nM need not be written.

Missing value: EC50, HIV-1 NL4-3, entry `C=C(C)[C@@H]1CC[C@]2(C(=O)NCCCCCCNC(C)=O)CC[C@]3(C)[C@H](CC[C@@H]4[C@@]5(C)CC[C@H](OC(=O)CC(C)(C)C(=O)O)C(C)(C)[C@@H]5CC[C@]43C)[C@@H]12` . Fill in?
7

Missing value: EC50, HIV-1 NL4-3, entry `C=C(C)[C@@H]1CC[C@]2(C(=O)NCCCCCCCCNC(C)=O)CC[C@]3(C)[C@H](CC[C@@H]4[C@@]5(C)CC[C@H](OC(=O)CC(C)(C)C(=O)O)C(C)(C)[C@@H]5CC[C@]43C)[C@@H]12` . Fill in?
3.6

Missing value: EC50, HIV-1 NL4-3, entry `C=C(C)[C@@H]1CC[C@]2(C(=O)NCCCCCCCCCNC(C)=O)CC[C@]3(C)[C@H](CC[C@@H]4[C@@]5(C)CC[C@H](OC(=O)CC(C)(C)C(=O)O)C(C)(C)[C@@H]5CC[C@]43C)[C@@H]12` . Fill in?
12

Missing value: EC50, HIV-1 NL4-3, entry `C=C(C)[C@@H]1CC[C@]2(C(=O)On3nnc4ccccc43)CC[C@]3(C)[C@H](CC[C@@H]4[C@@]5(C)CC[C@H](OC(=O)C(C)(C)CC(=O)O)C(C)(C)[C@@H]5CC[C@]43C)[C@@H]12` . Fill in?
35

Missing value: EC50, HIV-1 NL4-3, entry `C=C(C)[C@@H]1CC[C@]2(C(=O)NCCCCCNC(C)=O)CC[C@]3(C)[C@H](CC[C@@H]4[C@@]5(C)CC[C@H](OC(=O)CC(C)(C)C(=O)O)C(C)(C)[C@@H]5CC[C@]43C)[C@@H]12` . Fill in?
12

----------
Give measured IC50 for each item. Keep answers brief.
system: MT4 cells; assay: Reduction of viable cells in a 4-day assay (MT4 cells); format: cell-based; conditions: Homo sapiens, 96 h; cytotoxicity, 4-day assay, MT4 cells; average of at least two experiments; read-out: IC50 (drug concentration that resulted in a 50% reduction of viable cells)
Give just the numeric value; µM need not be written.

I would be grateful if you could share the reported IC50 for C=C(C)[C@@H]1CC[C@]2(C(=O)NCCCCCNC(C)=O)CC[C@]3(C)[C@H](CC[C@@H]4[C@@]5(C)CC[C@H](OC(=O)CC(C)(C)C(=O)O)C(C)(C)[C@@H]5CC[C@]43C)[C@@H]12 [Compound 16] .
9

I would be grateful if you could share the reported IC50 for C=C(C)[C@@H]1CC[C@]2(C(=O)NCCCCCCCCNC(C)=O)CC[C@]3(C)[C@H](CC[C@@H]4[C@@]5(C)CC[C@H](OC(=O)CC(C)(C)C(=O)O)C(C)(C)[C@@H]5CC[C@]43C)[C@@H]12 [Compound 19] .
7

I would be grateful if you could share the reported IC50 for C=C(C)[C@@H]1CC[C@]2(C(=O)On3nnc4ccccc43)CC[C@]3(C)[C@H](CC[C@@H]4[C@@]5(C)CC[C@H](OC(=O)C(C)(C)CC(=O)O)C(C)(C)[C@@H]5CC[C@]43C)[C@@H]12 [Compound 11] .
2.5

I would be grateful if you could share the reported IC50 for C=C(C)[C@@H]1CC[C@]2(C(=O)NCCCCCCCCCNC(C)=O)CC[C@]3(C)[C@H](CC[C@@H]4[C@@]5(C)CC[C@H](OC(=O)CC(C)(C)C(=O)O)C(C)(C)[C@@H]5CC[C@]43C)[C@@H]12 [Compound 20] .
7.4

I would be grateful if you could share the reported IC50 for C=C(C)[C@@H]1CC[C@]2(C(=O)NCCCCCCNC(C)=O)CC[C@]3(C)[C@H](CC[C@@H]4[C@@]5(C)CC[C@H](OC(=O)CC(C)(C)C(=O)O)C(C)(C)[C@@H]5CC[C@]43C)[C@@H]12 [Compound 17] .
7.5

Hey, just so you know, these numbers are from patent US20110152229A1.
